target: PI3K β (Homo sapiens); construct: Full length p110 subunits of PI3K α, β and δ, N-terminally labeled with polyHis tag; polyHis (N); test: In vitro PI3 kinase enzyme assay (beta), ATP loss, bioluminescence; conditions: read-out: PI3Kβ ATP loss IC50
MEASURED QUANTITY: IC50 (µM)

These solved cases illustrate the format of a correct answer.
{"STRUCTURE": "CC(=O)Nc1nc2ccc(-c3cnc(Cl)c(NS(=O)(=O)Cc4ccccc4)c3)cc2s1", "TARGET ENTITY": "PI3K β (Homo sapiens)", "MEASURED QUANTITY": "IC50", "NUMERIC READOUT": 0.0254}
{"STRUCTURE": "CC(=O)Nc1nc2ccc(-c3cc(C)nc(N)n3)cc2s1", "TARGET ENTITY": "PI3K β (Homo sapiens)", "MEASURED QUANTITY": "IC50", "NUMERIC READOUT": 9.99}

A: CN(C)c1cc(-c2ccc3nc(NC(=O)COc4ccccc4)sc3c2)cnc1Cl
B: CC(=O)Nc1nc2ccc(-c3cnc(C)c(NS(=O)(=O)c4ccc(F)cc4)c3)cc2s1
Compare A and B and name the one whose reported IC50 is smaller. Pick one; state its label. B
(B: 0.0131 µM, A: 1.45 µM)

* * *

target: PI3K β (Homo sapiens, UniProt P42338); construct: Full length p110 subunits of PI3K α, β and δ, N-terminally labeled with polyHis tag; polyHis (N); assay: In vitro PI3 kinase enzyme assay (beta), ATP loss, bioluminescence; settings: read-out: PI3Kβ ATP loss IC50
Sequence (P42338 whole entry): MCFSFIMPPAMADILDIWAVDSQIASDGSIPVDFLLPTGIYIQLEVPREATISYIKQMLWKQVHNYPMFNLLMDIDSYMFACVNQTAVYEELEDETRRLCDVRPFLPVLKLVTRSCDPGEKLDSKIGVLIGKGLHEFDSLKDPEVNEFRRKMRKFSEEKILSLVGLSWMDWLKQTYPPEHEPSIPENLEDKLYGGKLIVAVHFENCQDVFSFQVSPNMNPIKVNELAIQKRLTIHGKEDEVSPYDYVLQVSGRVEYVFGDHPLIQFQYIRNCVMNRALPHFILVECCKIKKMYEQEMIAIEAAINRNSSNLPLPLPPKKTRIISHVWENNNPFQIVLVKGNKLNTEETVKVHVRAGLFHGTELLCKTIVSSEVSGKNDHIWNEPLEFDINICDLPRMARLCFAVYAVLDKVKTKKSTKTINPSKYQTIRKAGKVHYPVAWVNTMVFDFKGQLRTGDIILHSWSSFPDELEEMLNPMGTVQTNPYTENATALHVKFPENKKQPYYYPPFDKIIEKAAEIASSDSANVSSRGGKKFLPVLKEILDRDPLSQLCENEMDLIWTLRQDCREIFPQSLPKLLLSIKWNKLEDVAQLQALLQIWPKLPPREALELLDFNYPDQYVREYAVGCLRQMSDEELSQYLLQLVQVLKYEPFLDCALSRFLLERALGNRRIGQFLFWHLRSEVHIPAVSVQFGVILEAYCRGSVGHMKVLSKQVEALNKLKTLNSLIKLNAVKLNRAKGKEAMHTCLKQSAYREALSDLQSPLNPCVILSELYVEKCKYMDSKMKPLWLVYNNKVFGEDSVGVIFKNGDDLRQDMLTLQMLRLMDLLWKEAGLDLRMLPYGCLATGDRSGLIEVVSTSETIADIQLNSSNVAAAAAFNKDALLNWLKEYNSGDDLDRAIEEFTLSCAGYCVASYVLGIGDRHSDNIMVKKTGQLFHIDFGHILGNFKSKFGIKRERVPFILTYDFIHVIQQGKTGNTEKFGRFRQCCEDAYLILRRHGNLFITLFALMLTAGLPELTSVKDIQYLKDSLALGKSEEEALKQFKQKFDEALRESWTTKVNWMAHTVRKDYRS
Sequence (P27986 whole entry partner): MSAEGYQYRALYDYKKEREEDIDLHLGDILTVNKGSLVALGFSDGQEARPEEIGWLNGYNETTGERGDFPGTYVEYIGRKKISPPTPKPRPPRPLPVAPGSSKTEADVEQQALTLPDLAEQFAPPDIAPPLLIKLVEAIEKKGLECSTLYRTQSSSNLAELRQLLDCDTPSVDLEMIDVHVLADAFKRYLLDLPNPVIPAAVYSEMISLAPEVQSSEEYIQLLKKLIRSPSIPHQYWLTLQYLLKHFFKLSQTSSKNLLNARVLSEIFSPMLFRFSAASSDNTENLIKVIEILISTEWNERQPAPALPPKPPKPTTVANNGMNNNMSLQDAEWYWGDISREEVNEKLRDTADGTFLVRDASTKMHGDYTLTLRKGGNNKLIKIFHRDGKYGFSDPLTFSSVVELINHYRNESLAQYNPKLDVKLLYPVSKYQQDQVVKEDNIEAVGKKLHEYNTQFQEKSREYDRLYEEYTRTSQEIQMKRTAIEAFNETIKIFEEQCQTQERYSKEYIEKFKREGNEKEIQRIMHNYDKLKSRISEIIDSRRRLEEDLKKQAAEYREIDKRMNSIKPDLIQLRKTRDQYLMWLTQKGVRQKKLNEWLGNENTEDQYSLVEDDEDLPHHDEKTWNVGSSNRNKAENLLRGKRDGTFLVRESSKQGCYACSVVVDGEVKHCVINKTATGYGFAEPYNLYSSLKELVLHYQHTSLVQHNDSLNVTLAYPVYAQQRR
pIC50: −log10 of the molar value.
MEASURED QUANTITY: pIC50

{"COMPOUND": "CC(=O)Nc1nc2ccc(-c3ccnc(OCCCn4ccnn4)n3)cc2s1 [Example 20]", "NUMERIC READOUT": 5.28}

P: CC(=O)Nc1ccc(Sc2nccc(-c3ccc4nc(NC(C)=O)sc4c3)n2)cc1 [Example 29]
Q: COc1ccc(S(=O)(=O)N(C)c2cncc(-c3ccc4nc(NC(C)=O)sc4c3)n2)cc1 [Example 126]
R: CC(=O)Nc1nc2ccc(-c3cncc(OCCN4CCOC4=O)c3)cc2s1 [Example 232]
S: CC(=O)Nc1nc2ccc(-c3cnc(C)c(NS(=O)(=O)c4ccc(C(C)(C)C)cc4)c3)cc2s1 [Example 114]
Highest pIC50 first, then in falling order down to the smallest. The response must list the labels following the requested ordering. S, Q, P, R
(S: 8.05, Q: 6.49, P: 5.62, R: 5.13)

1: CC(=O)Nc1nc2ccc(-c3ccnc(Sc4ccccc4Cl)n3)cc2s1 [Example 125]
2: CC(=O)Nc1nc2ccc(-c3cncc(F)c3)cc2s1 [Example 289]
3: CC(=O)Nc1nc2ccc(-c3ccnc(Sc4ccccc4Br)n3)cc2s1 [Example 134]
4: CC(=O)Nc1nc2ccc(-c3ccnc(SCc4ccccc4)n3)cc2s1 [Example 19]
5: CC(=O)Nc1nc2ccc(-c3cnc(Cl)c(NS(=O)(=O)C(C)C)c3)cc2s1 [Example 179]
Highest pIC50 first, then in falling order down to the smallest. The response must list the labels following the requested ordering. 5, 4, 1, 3, 2

* * *

molecular target: PI3K α (Homo sapiens, UniProt P42336); construct: Full length p110 subunits of PI3K α, β and δ, N-terminally labeled with polyHis tag; polyHis (N); test: In vitro PI3 kinase enzyme assay (alpha), ATP loss, bioluminescence; conditions: read-out: PI3Kα ATP loss IC50
Sequence (P42336 whole entry, species assumed): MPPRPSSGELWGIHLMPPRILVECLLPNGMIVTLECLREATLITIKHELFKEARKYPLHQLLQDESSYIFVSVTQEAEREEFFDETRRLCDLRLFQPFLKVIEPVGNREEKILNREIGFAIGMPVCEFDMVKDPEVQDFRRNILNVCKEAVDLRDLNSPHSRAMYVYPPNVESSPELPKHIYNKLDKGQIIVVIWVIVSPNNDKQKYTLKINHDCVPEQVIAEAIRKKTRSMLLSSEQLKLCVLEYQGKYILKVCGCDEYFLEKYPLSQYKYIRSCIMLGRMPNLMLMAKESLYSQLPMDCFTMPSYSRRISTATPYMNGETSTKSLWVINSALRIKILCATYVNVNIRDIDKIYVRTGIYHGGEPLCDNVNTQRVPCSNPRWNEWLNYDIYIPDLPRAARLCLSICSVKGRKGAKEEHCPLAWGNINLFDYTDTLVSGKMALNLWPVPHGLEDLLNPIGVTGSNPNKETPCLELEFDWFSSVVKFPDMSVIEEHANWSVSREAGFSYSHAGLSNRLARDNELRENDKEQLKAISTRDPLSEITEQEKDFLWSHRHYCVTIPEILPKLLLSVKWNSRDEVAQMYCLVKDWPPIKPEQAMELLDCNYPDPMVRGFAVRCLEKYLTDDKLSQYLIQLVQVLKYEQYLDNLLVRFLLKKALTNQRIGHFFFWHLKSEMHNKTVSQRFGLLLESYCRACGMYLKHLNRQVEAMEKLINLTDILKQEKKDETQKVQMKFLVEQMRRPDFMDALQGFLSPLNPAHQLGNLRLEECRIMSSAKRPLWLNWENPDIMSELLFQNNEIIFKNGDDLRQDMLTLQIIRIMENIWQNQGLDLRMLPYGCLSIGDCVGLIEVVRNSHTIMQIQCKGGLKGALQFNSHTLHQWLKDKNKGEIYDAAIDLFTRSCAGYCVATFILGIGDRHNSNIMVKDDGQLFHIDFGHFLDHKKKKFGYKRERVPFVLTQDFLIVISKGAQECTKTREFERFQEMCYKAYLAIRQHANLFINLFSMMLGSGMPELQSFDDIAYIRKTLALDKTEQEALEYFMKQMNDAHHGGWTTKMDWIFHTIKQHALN
Sequence (P27986 whole entry partner, species assumed): as the sequence (P27986 whole entry partner) above
MEASURED QUANTITY: IC50 (nM)

These solved cases illustrate the format of a correct answer.
{"STRUCTURE": "CC(=O)Nc1nc2ccc(-c3ccnc(Sc4ccccc4Cl)n3)cc2s1", "TARGET ENTITY": "PI3K α (Homo sapiens, UniProt P42336)", "IC50 (nM)": 25.4}
{"STRUCTURE": "CC(=O)Nc1nc2ccc(-c3cccc(S(=O)(=O)c4ccccc4)n3)cc2s1", "TARGET ENTITY": "PI3K α (Homo sapiens, UniProt P42336)", "IC50 (nM)": 221}

a: CC(=O)Nc1nc2ccc(-c3ccnc(Sc4cc(C)ccc4C)n3)cc2s1
b: COc1ccc(Sc2nccc(-c3ccc4nc(NC(C)=O)sc4c3)n2)c(C)c1
c: COCCOCOc1cc(-c2ccc3nc(NC(C)=O)sc3c2)cnc1C(F)(F)F
Highest IC50 first, then in falling order down to the smallest. The response must list the labels following the requested ordering. c, b, a

* * *

biological target: PI3K β (Homo sapiens); construct: Full length p110 subunits of PI3K α, β and δ, N-terminally labeled with polyHis tag; polyHis (N); experiment: In vitro PI3 kinase enzyme assay (beta), ATP loss, bioluminescence; settings: read-out: PI3Kβ ATP loss IC50
MEASURED QUANTITY: IC50 (nM)

{"MOLECULE": "CC(=O)Nc1nc2ccc(-c3cnc(OCCN(C)C)c(NC(C)C)c3)cc2s1 [Example 159]", "NUMERIC READOUT": 3740}
{"MOLECULE": "CC(=O)Nc1nc2ccc(-c3ccnc(Sc4ccc(F)cc4)n3)cc2s1 [Example 26]", "NUMERIC READOUT": 407}
{"MOLECULE": "CCCCS(=O)(=O)Nc1cc(-c2ccc3nc(NC(C)=O)sc3c2)cnc1Cl [Example 178]", "NUMERIC READOUT": 19.9}
{"MOLECULE": "CCN(c1nccc(-c2ccc3nc(NC(C)=O)sc3c2)n1)S(=O)(=O)c1ccc(OC)cc1 [Example 89]", "NUMERIC READOUT": 442}
{"MOLECULE": "CC(=O)Nc1nc2ccc(-c3ccnc(OCc4ccncc4)n3)cc2s1 [Example 17]", "NUMERIC READOUT": 11100}

A: CN(C)c1cc(-c2ccc3nc(NC(=O)NCCN4CCOCC4)sc3c2)cnc1Cl [Example 273]
B: CC(=O)Nc1nc2ccc(-c3cnc(Cl)c(N(C)C)c3)cc2s1 [Example 269]
C: CC(=O)Nc1nc2ccc(-c3cccc(S(=O)(=O)c4ccc(F)cc4)n3)cc2s1 [Example 66]
Ordering: ascending IC50. The response must list the labels following the requested ordering. B, A, C
(B: 221 nM, A: 2070 nM, C: 5610 nM)

P: CC(=O)Nc1nc2ccc(-c3ccnc(N(C)S(=O)(=O)c4ccc5ncccc5c4)n3)cc2s1 [Example 204]
Q: CC(=O)Nc1nc2ccc(-c3ccnc(Sc4ccccc4C(C)(C)C)n3)cc2s1 [Example 30]
Compare P and Q and name the one whose reported IC50 is smaller. Pick one; state its label. P

* * *

biological target: PI3K β (Homo sapiens, UniProt P42338); construct: Full length p110 subunits of PI3K α, β and δ, N-terminally labeled with polyHis tag; polyHis (N); assay: In vitro PI3 kinase enzyme assay (beta), ATP loss, bioluminescence; conditions: read-out: PI3Kβ ATP loss IC50;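 also: purified p110β/p85 heterodimer with PtdIns(4,5)P2 as acceptor, incubated at room temperature, leftover ATP read by luminescence, inhibition scaled to compound-free wells with and without enzyme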
pIC50: −log10 of the molar value.
MEASURED QUANTITY: pIC50

These solved cases illustrate the format of a correct answer.
{"MOLECULE": "CN(C)c1cc(-c2ccc3nc(NS(C)(=O)=O)sc3c2)cnc1Cl", "pIC50": 4.52}
{"MOLECULE": "CC(=O)Nc1nc2ccc(-c3cncc(OC(C)CN4CCOCC4)c3)cc2s1 (stereo not drawn)", "pIC50": 4.80}
{"MOLECULE": "CC(=O)Nc1nc2ccc(-c3ccnc(Oc4ccccc4)n3)cc2s1", "pIC50": 5.22}
{"MOLECULE": "CNc1nc2ccc(-c3cnc(Cl)c(NS(=O)(=O)c4c(Cl)cccc4Cl)c3)cc2s1", "pIC50": 7.44}
{"MOLECULE": "Nc1nc2ccc(-c3cnc(Cl)c(NS(=O)(=O)c4ccc(Cl)cc4F)c3)cc2s1", "pIC50": 7.55}

a: CC(=O)Nc1nc2ccc(-c3cnc(Cl)c(NS(=O)(=O)c4cccc(F)c4)c3)cc2s1
b: CC(=O)Nc1nc2ccc(-c3cc(OC(C)C#N)cnc3Cl)cc2s1 (stereo not drawn)
Compare a and b and name the one whose reported pIC50 is smaller. Pick one; state its label. b
(b: 5.42, a: 7.98)

P: Cc1ccc(S(=O)(=O)Nc2nnc(-c3ccc4nc(N)sc4c3)o2)cc1
Q: COc1cccc(COc2nccc(-c3ccc4nc(NC(C)=O)sc4c3)n2)c1
R: CC(=O)Nc1nc2ccc(-c3ccnc(O[C@H](C)c4ccccc4)n3)cc2s1
S: CC(=O)Nc1nc2ccc(-c3csc(S(=O)(=O)c4ccccc4F)n3)cc2s1
Highest pIC50 first, then in falling order down to the smallest. The response must list the labels following the requested ordering. P, Q, R, S
(P: 6.77, Q: 6.53, R: 6.29, S: 5.33)

* * *

target: PI3K α (Homo sapiens); construct: Full length p110 subunits of PI3K α, β and δ, N-terminally labeled with polyHis tag; polyHis (N); made in house; host or cells: Sf9 insect cells (baculovirus); assay: In vitro PI3 kinase enzyme assay (alpha), ATP loss, bioluminescence; assay type: biochemical; conditions: read-out: PI3Kα ATP loss IC50
pIC50: −log10 of the molar value.
MEASURED QUANTITY: pIC50

These solved cases illustrate the format of a correct answer.
{"STRUCTURE": "CC(=O)Nc1nc2ccc(-c3cnc(Cl)c(NS(=O)(=O)c4ccc(C)cc4)c3)cc2s1", "TARGET ENTITY": "PI3K α (Homo sapiens)", "NUMERIC READOUT": 8.19}
{"STRUCTURE": "CNc1nc2ccc(-c3cnc(Cl)c(NS(=O)(=O)c4c(C)cccc4Cl)c3)cc2s1", "TARGET ENTITY": "PI3K α (Homo sapiens)", "NUMERIC READOUT": 7.95}
{"STRUCTURE": "CC(=O)Nc1nc2ccc(-c3cnc(Cl)c(NS(=O)(=O)C(C)C)c3)cc2s1", "TARGET ENTITY": "PI3K α (Homo sapiens)", "NUMERIC READOUT": 7.90}

A: CC(=O)Nc1nc2ccc(-c3cnc(Cl)c(NS(=O)(=O)c4ccc(C(C)=O)cc4)c3)cc2s1
B: COc1ccccc1S(=O)(=O)c1cccc(-c2ccc3nc(NC(C)=O)sc3c2)n1
Compare A and B and name the one whose reported pIC50 is smaller. Pick one; state its label. B

1: COc1cccc(-c2cccc3nc(NC(C)=O)sc23)c1
2: CC(=O)Nc1nc2ccc(-c3ccnc(OCCCc4ccccc4)n3)cc2s1
Response body: label of entry with the larger pIC50; valid values 1 , 2 . Pick one; state its label. 2
(2: 6.82, 1: 5.78)
